Recorded values, source the Human Domainome abundance scans (Beltran et al. 2025).

B1: Gamma-crystallin C, residues 4 to 79; numbered along this chain, P07315 (parent)
chain: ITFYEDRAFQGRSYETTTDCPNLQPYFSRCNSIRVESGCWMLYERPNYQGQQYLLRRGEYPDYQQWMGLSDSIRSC

Variants of: B1
ASSAY NAME: abundance fitness (aPCA) (normalised: wild type 0, dead -1); higher = more abundant; growth selection in yeast, the domain comes from the species named
EXPERIMENTAL SETUP: Homo sapiens
Give abundance fitness for every item shown.
Give bare numbers.

Field: example entries. Status: answers known.
ITFYEDRAFQGRSYETTTDCPNLQPYFSRCNSIRVESGCWMLYERPNYQGQQYLLRRGEYPDYQQWMGLSDSIRSG [C76G] = 0.116
ITFYEDRAFQGRSYETTTDCPNLQPYFSRCNSIRVESGCWMLYERPNYQGQQYLLRRGEYPDYQQWMGLSDSIQSC [R74Q] = -0.001
ITFYEDRAFQGRSYETTTDCPNLQPYFSRCNSIRVESGCWMLYERPNYQGQQYLLRRGEYPDYQMWMGLSDSIRSC [Q65M] = 0.015
ITCYEDRAFQGRSYETTTDCPNLQPYFSRCNSIRVESGCWMLYERPNYQGQQYLLRRGEYPDYQQWMGLSDSIRSC [F3C] = -0.586
ITFYEDRAFQGRSYETTTDCPNLQPYFSRCNSIRVESGCWMLDERPNYQGQQYLLRRGEYPDYQQWMGLSDSIRSC [Y43D] = -0.817

I'm hoping you can list abundance fitness for every variant here, please.
1. ITFYEDRAFQGRSYETTTDCPNLQQYFSRCNSIRVESGCWMLYERPNYQGQQYLLRRGEYPDYQQWMGLSDSIRSC [P25Q]
2. ITFYEDRAFQGRSYETTTDDPNLQPYFSRCNSIRVESGCWMLYERPNYQGQQYLLRRGEYPDYQQWMGLSDSIRSC [C20D]

Reply text:
1. -0.05
2. 0.169

I'm hoping you can list abundance fitness for every variant here, please.
1. ITFYEDRAFQGRSNETTTDCPNLQPYFSRCNSIRVESGCWMLYERPNYQGQQYLLRRGEYPDYQQWMGLSDSIRSC [Y14N]
2. IKFYEDRAFQGRSYETTTDCPNLQPYFSRCNSIRVESGCWMLYERPNYQGQQYLLRRGEYPDYQQWMGLSDSIRSC [T2K]

Reply text:
1. -0.154
2. -0.039

I'm hoping you can list abundance fitness for every variant here, please.
1. ITFYEDRAFQGRSYETTTDCPNLQPYFSRCNWIRVESGCWMLYERPNYQGQQYLLRRGEYPDYQQWMGLSDSIRSC [S32W]
2. IEFYEDRAFQGRSYETTTDCPNLQPYFSRCNSIRVESGCWMLYERPNYQGQQYLLRRGEYPDYQQWMGLSDSIRSC [T2E]
3. ITFYELRAFQGRSYETTTDCPNLQPYFSRCNSIRVESGCWMLYERPNYQGQQYLLRRGEYPDYQQWMGLSDSIRSC [D6L]
4. ITFYEDRAFQGRSYETTTDCPNLQPYFSRCNSIRVESGCWLLYERPNYQGQQYLLRRGEYPDYQQWMGLSDSIRSC [M41L]
5. ITFYEDRAFQGRSYETTTDCPNLQPYFSRCNSIRVESGCWMLYERPNYQGQQYPLRRGEYPDYQQWMGLSDSIRSC [L54P]
6. ITFYEDRAFQGRSYETTTDCPNLQPYFSRCNSIRVESGCWMLYERPNYQGQYYLLRRGEYPDYQQWMGLSDSIRSC [Q52Y]
7. ITFYEDRAFQGRSYETTTDCPNLQPYFSRCNSIRVESGCWMLYERPNYQGQQYLLRRGEYPDYQQGMGLSDSIRSC [W66G]
8. ITFYEDRAFQGRSYETTTDCPNLQPYFSRCNSIRVESGCWMLYERPNYQGQQYLLRRGEYPDYQQTMGLSDSIRSC [W66T]

Reply text:
1: -0.889; 2: -0.473; 3: 0.032; 4: -0.056; 5: -0.092; 6: -0.326; 7: 0.059; 8: 0.021

I'm hoping you can list abundance fitness for every variant here, please.
1. ITFYEDRAFQGRSYETTTDCPNLQPYFSRCNSIQVESGCWMLYERPNYQGQQYLLRRGEYPDYQQWMGLSDSIRSC [R34Q]
2. ITFYEDRAFQGRSYETTTDCSNLQPYFSRCNSIRVESGCWMLYERPNYQGQQYLLRRGEYPDYQQWMGLSDSIRSC [P21S]
3. ITFYEDRAFQGRSYETTTDCPNLQPYFSRCNSIRVESGCWMLYERPNYQGQQYLSRRGEYPDYQQWMGLSDSIRSC [L55S]
4. ITFYEDRAFQGRSYETTTDCPKLQPYFSRCNSIRVESGCWMLYERPNYQGQQYLLRRGEYPDYQQWMGLSDSIRSC [N22K]
5. ITFYEDRAFQCRSYETTTDCPNLQPYFSRCNSIRVESGCWMLYERPNYQGQQYLLRRGEYPDYQQWMGLSDSIRSC [G11C]

Reply text:
1. -0.041
2. -0.19
3. -0.701
4. 0.064
5. -0.299
